- Tested on: Trichophyton tonsurans
- Experiment: Antifungal activity against Trichophyton tonsurans NCPF 245 after 7 days by microbroth dilution method
- Type: functional
- Condition Description: NCPF 245, 168 h, read-out: MIC100
Property Name: MIC (µg/mL)
Respond numerically; units are µg/mL and should not be typed.

Recorded MIC, per entry:
smiles_data=S=c1[nH]nc(Cc2csc3nc(-c4ccc(Br)cc4)cn23)n1-c1ccc(Cl)cc1 unit_of_measurement=µg/mL observed_result=32
smiles_data=CCCn1c(Cc2csc3nc(-c4ccc(Br)cc4)cn23)n[nH]c1=S unit_of_measurement=µg/mL observed_result=8
smiles_data=CCn1c(Cc2csc3nc(-c4ccc(Br)cc4)cn23)n[nH]c1=S unit_of_measurement=µg/mL observed_result=8

Prompt line: Give MIC (Trichophyton tonsurans) of the following compound: CNc1nnc(Cc2csc3nc(-c4ccc(Br)cc4)cn23)s1
Response line: 8

Prompt line: Give MIC (Trichophyton tonsurans) of the following compound: S=c1[nH]nc(Cc2csc3nc(-c4ccc(Br)cc4)cn23)n1-c1ccccc1
Response line: 16

###

- System: Trichophyton tonsurans
- Experiment: Antifungal activity against Trichophyton tonsurans NCPF 245 after 7 days by microbroth dilution method
- Format: functional
- Condition Description: NCPF 245, 168 h, read-out: MIC100
Property Name: MIC
Write your answer as a measured quantity: the number, then the unit.

Recorded MIC, per entry:
smiles_data=Cn1c(Cc2csc3nc(-c4ccc(Br)cc4)cn23)n[nH]c1=S observed_result="16 µg/mL"
smiles_data=CCCCn1c(Cc2csc3nc(-c4ccc(Br)cc4)cn23)n[nH]c1=S observed_result="32 µg/mL"
smiles_data=C[C@@H]1[C@H](O)[C@@H](C)/C=C/C=C/C=C/C=C/C=C/C=C/C=C/[C@H](O[C@@H]2O[C@H](C)[C@@H](O)[C@H](N)[C@@H]2O)C[C@@H]2O[C@](O)(C[C@@H](O)C[C@@H](O)[C@H](O)CC[C@@H](O)C[C@@H](O)CC(=O)O[C@H]1C)C[C@H](O)[C@H]2C(=O)O observed_result="0.25 µg/mL"

Prompt line: Look up MIC for this molecule: CCNc1nnc(Cc2csc3nc(-c4ccc(Br)cc4)cn23)s1
Response line: 8 µg/mL

Prompt line: Look up MIC for this molecule: Cc1ccc(-n2c(Cc3csc4nc(-c5ccc(Br)cc5)cn34)n[nH]c2=S)cc1
Response line: 16 µg/mL

Prompt line: Look up MIC for this molecule: C=CCn1c(Cc2csc3nc(-c4ccc(Br)cc4)cn23)n[nH]c1=S
Response line: 32 µg/mL

Prompt line: Look up MIC for this molecule: S=c1[nH]nc(Cc2csc3nc(-c4ccc(Br)cc4)cn23)n1-c1ccc(Br)cc1
Response line: 32 µg/mL
